// data source = the supplement of paper PMC10065799

# Measured On: Fes (UniProt P07332)
# Sequence (P07332 whole entry, looked up): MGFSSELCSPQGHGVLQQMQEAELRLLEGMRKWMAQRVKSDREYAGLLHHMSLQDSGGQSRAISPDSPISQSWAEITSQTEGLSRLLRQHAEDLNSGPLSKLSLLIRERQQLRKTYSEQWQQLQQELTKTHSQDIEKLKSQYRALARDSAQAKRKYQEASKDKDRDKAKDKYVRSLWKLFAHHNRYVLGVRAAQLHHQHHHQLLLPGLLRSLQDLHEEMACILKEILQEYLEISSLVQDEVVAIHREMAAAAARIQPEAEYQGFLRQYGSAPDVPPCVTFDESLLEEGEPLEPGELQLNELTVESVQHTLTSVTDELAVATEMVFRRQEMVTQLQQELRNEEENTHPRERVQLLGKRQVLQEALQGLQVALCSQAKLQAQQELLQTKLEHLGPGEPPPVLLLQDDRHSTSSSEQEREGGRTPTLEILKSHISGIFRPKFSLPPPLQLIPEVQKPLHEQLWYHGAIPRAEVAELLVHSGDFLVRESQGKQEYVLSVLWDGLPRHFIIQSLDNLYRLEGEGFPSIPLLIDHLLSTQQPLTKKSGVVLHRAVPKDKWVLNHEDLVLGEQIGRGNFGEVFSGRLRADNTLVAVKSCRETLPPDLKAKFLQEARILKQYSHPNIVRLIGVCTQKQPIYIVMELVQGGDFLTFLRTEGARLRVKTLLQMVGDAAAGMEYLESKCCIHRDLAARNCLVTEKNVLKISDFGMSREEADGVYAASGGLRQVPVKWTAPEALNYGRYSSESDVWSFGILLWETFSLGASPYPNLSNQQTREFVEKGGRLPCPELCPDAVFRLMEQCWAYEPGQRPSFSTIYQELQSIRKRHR
# Experiment: phosphorylation enrichment, bacterial display (enrichment ratio); higher = better substrate or ligand; peptides without Tyr show the background
Cut-off 1 on phosphorylation enrichment, inclusive. At or above means T; below means F.

{"Residue String": "PYYASYPPSPD [GDAP2_Y491_T489A]", "Class Name": "T"}
{"Residue String": "KQRSDYARELE [MYH3_Y1140]", "Class Name": "F"}
{"Residue String": "RFWPRYVKVGS [NOG_Y172]", "Class Name": "F"}
{"Residue String": "DYYDLYGGEKL [PTPN11_Y66_F71L]", "Class Name": "T"}
{"Residue String": "FESPRYLQVHI [FANCA_Y488]", "Class Name": "T"}
{"Residue String": "RNVLVYDKLNV [ROR2_Y624]", "Class Name": "F"}
{"Residue String": "DGLALYTGSAL [COL6A3_Y524_S521L]", "Class Name": "T"}
{"Residue String": "SLEKSYKLPDG [ACTA1_Y242_E243K]", "Class Name": "F"}
{"Residue String": "VDEVLYEDSSA [MTHFS_Y197_T202A]", "Class Name": "T"}
{"Residue String": "MLEVSYVDRNS [F10_Y384_P383S]", "Class Name": "F"}
{"Residue String": "EIRTQDEAMAS [GFAP_Y242_Y242D]", "Class Name": "F"}
{"Residue String": "LFMGDYVDRGF [PPP2CA_Y86_YF]", "Class Name": "F"}
{"Residue String": "HPFNSYTFPRL [PAK5_Y316_S312P_YF]", "Class Name": "F"}
{"Residue String": "KSSDVYVSYDC [SORL1_Y136_Y141C]", "Class Name": "T"}

====

# Tested on: c-Src
# Experiment: phosphorylation enrichment, bacterial display (enrichment ratio); higher = better substrate or ligand; peptides without Tyr show the background
Each record's class is read off its phosphorylation enrichment using these ranges: c1 (below 0.5), c2 (0.5 to below 0.7), c3 (0.7 or more)

{"Residue String": "RAYRHYLLKQK [SCN2A_Y1919_R1918H]", "Class Name": "c2"}
{"Residue String": "REAAAYPHGRL [AGXT_Y297_L298P]", "Class Name": "c1"}
{"Residue String": "WPLKWYVPECI [ZAP70_Y506_A507V]", "Class Name": "c1"}
{"Residue String": "DFAIVYGTIIL [GPR179_Y460_G455D]", "Class Name": "c1"}
{"Residue String": "WQLEIYRASRP [ERCC4_Y594_R589W]", "Class Name": "c1"}
{"Residue String": "GEDEPYSEPYA [APBA1_Y183]", "Class Name": "c2"}
{"Residue String": "FHNSEYGELSE [FLT4_Y1337_Y1333H]", "Class Name": "c3"}
{"Residue String": "LEIETDRRLLD [KRT12_Y429_Y429D]", "Class Name": "c3"}
{"Residue String": "HLVLNYGVCIC [JAK2_Y613_V617I]", "Class Name": "c2"}
{"Residue String": "IHSGIYFKPES [L2HGDH_Y102_YF]", "Class Name": "c3"}
{"Residue String": "LWPIWYRCRRP [MRGPRX1_Y130_H133R]", "Class Name": "c1"}
{"Residue String": "LSSEMCVKSFT [F5_Y2149_Y2149C_YF]", "Class Name": "c3"}
{"Residue String": "PGLSSYGVPGS [FLNB_Y1530_A1534G]", "Class Name": "c1"}
{"Residue String": "DLVHPYVHKIL [SF3B1_Y570_R568H]", "Class Name": "c1"}
{"Residue String": "FEGHSYSACTT [MMP9_Y241_R239H]", "Class Name": "c2"}
{"Residue String": "GEEIKYTLWLS [OTC_Y55_M56T]", "Class Name": "c1"}
{"Residue String": "LATINYPFEKG [NDUFS8_Y84_P79L]", "Class Name": "c1"}
{"Residue String": "HAVFIYDICHV [TWNK_Y508_V507I_YF]", "Class Name": "c3"}
{"Residue String": "ENPAKYDDIKK [GAPDH_Y255_K251N]", "Class Name": "c1"}
{"Residue String": "LRNRVYEVPVE [SLC26A3_Y756]", "Class Name": "c3"}
{"Residue String": "ILGTYYETGSI [PAX2_Y73_R71T]", "Class Name": "c3"}
{"Residue String": "FKEIVYAVSSD [DCX_Y70_G67E]", "Class Name": "c3"}
{"Residue String": "ATDLAYYLVRE [ASL_Y375_K380E]", "Class Name": "c3"}
{"Residue String": "GGGGGYNRSSG [FUS_Y232]", "Class Name": "c1"}
{"Residue String": "DEIPLYLKGGV [COX7A2_Y44]", "Class Name": "c1"}
{"Residue String": "YLEKYYKFGCR [NNMT_Y25_S29C]", "Class Name": "c3"}
{"Residue String": "GSSEDYLHMVH [NIPBL_Y247]", "Class Name": "c2"}

====

phosphorylation enrichment values for the sequences below.
# Test system: c-Abl (mouse)
# Experiment: phosphorylation enrichment, bacterial display (enrichment ratio); higher = better substrate or ligand; peptides without Tyr show the background

{"Residue String": "NSRYTCKLEVK [USH2A_Y3747_Y3747C]", "phosphorylation enrichment": 0.921}
{"Residue String": "YDEYRYRSVIK [CFTR_Y517]", "phosphorylation enrichment": 1.05}
{"Residue String": "IVEYAYNDKAV [PUM3_Y259_I264V]", "phosphorylation enrichment": 1.01}
{"Residue String": "IRTIDYRYTVS [IDS_Y497_W502S]", "phosphorylation enrichment": 0.46}
{"Residue String": "DNQFAYLKAII [HNF4A_Y288_E285Q_YF]", "phosphorylation enrichment": 0.711}
{"Residue String": "HAVFIYDICHV [TWNK_Y508_V507I_YF]", "phosphorylation enrichment": 1.89}
{"Residue String": "YKPGFYNLKEK [LAMA1_Y490_C485Y]", "phosphorylation enrichment": 0.971}
{"Residue String": "CYSSEYHYVGG [CTSC_Y345_Y340C]", "phosphorylation enrichment": 2.79}
{"Residue String": "DRPASYLEKVR [KRT13_Y118_L115P]", "phosphorylation enrichment": 0.441}
{"Residue String": "ADSLRYIFPKL [EIF2B3_Y92_YF]", "phosphorylation enrichment": 0.566}
{"Residue String": "GYEEAYSVFKK [PAFAH1B1_Y28]", "phosphorylation enrichment": 1.96}
{"Residue String": "MANFMYKAGPS [MAML2_Y515_YF]", "phosphorylation enrichment": 0.534}
{"Residue String": "NHYKIYNLYAE [PTEN_Y68_C71Y]", "phosphorylation enrichment": 0.56}
{"Residue String": "SSMIDYNTLEK [MYOC_Y479_P481T]", "phosphorylation enrichment": 0.486}

====

# Measured On: c-Src SH2
# Experiment: SH2 binding enrichment of the phosphorylated peptide, bacterial display (enrichment ratio); higher = better substrate or ligand; peptides without Tyr show the background
# binarize SH2 binding enrichment: threshold 0.6 inclusive, high side y, low side n

{"Residue String": "GKGGSYSKAES [HLA-E_Y341_W346S]", "Measured On": "c-Src SH2", "Class Name": "n"}
{"Residue String": "MSRFIYSTDFF [NTRK1_Y676_D674Y_YF]", "Measured On": "c-Src SH2", "Class Name": "y"}
{"Residue String": "ESMLRYEVFGG [STOX1_Y607_YF]", "Measured On": "c-Src SH2", "Class Name": "y"}
{"Residue String": "GHMFAYDWISI [BEST1_Y227_L224M_YF]", "Measured On": "c-Src SH2", "Class Name": "y"}
{"Residue String": "YRDALYKFMVD [PHEX_Y250]", "Measured On": "c-Src SH2", "Class Name": "n"}
{"Residue String": "PELINYHQHNS [BTK_Y361]", "Measured On": "c-Src SH2", "Class Name": "n"}
{"Residue String": "IGNGYYFRVFS [MYBPC3_Y1136]", "Measured On": "c-Src SH2", "Class Name": "n"}
{"Residue String": "HLWRIYYDITD [MMP27_Y307]", "Measured On": "c-Src SH2", "Class Name": "y"}
{"Residue String": "YGGLRYGYGVL [KRTAP20-2_Y13]", "Measured On": "c-Src SH2", "Class Name": "y"}
{"Residue String": "LRNRVYEVPVE [SLC26A3_Y756]", "Measured On": "c-Src SH2", "Class Name": "y"}
{"Residue String": "AKGMKYLASKK [MET_Y1194]", "Measured On": "c-Src SH2", "Class Name": "n"}
{"Residue String": "TEAGDYKLCFD [TMED1_Y103]", "Measured On": "c-Src SH2", "Class Name": "n"}
{"Residue String": "AKIDGYITSYR", "Measured On": "c-Src SH2", "Class Name": "n"}
{"Residue String": "IFHENYNAGTY [CFI_Y421]", "Measured On": "c-Src SH2", "Class Name": "y"}
